Ref: patent US20090239846A1

Below: a set of entries, each annotated with reported melting point.
value-type: melting point

compound | observed-result
CCN(CC)C(=O)c1ccc(C)c(-c2nc(NC3CCN(C)CC3)nc3c2CNC(=O)N3c2c(F)cccc2F)c1 | 165 to 169 °C
CCN(CC)C(=O)c1ccc(C)c(-c2nc(NCCNC(C)C)nc3c2CNC(=O)N3c2c(F)cccc2F)c1 | 89 to 91 °C
COc1nc(-c2cc(NC(=O)c3ccsc3)ccc2C)c2c(n1)N(c1c(F)cccc1F)C(=O)NC2 [10(e)] | 225 to 228 °C (dec.)
CNC(=O)c1ccc(C)c(-c2nc(NCCCNC(C)(C)C)nc3c2CNC(=O)N3c2c(F)cccc2F)c1 | 166 to 170 °C (dec.)
Cc1ccc(C(=O)Nc2ccc(C)c(-c3nc(OC(C)C)nc4c3CNC(=O)N4c3c(F)cccc3F)c2)cc1F | 253.5 to 255.4 °C
Cc1ccc(C(=O)N(C)C)cc1-c1nc(NCCNC(C)C)nc2c1CNC(=O)N2c1c(F)cccc1F | 130 to 133 °C
Cc1ccc(C(=O)NCc2ccccc2)cc1-c1nc(NC2CCN(C)CC2)nc2c1CNC(=O)N2c1c(F)cccc1F | 152 to 154 °C (dec.)
CNCCNc1nc(-c2cc(C(=O)NCc3ccccc3)ccc2C)c2c(n1)N(c1c(F)cccc1F)C(=O)NC2 | 157 to 161 °C
CNC(=O)c1ccc(C)c(-c2nc(N3CCC(N4CCCCC4)CC3)nc3c2CNC(=O)N3c2c(F)cccc2F)c1 | 179 to 184 °C (dec.)
CCOc1nc(-c2cc(NC(=O)c3ccsc3)ccc2C)c2c(n1)N(c1c(F)cccc1F)C(=O)NC2 | 199 to 202 °C (dec.)
Cc1ccc(C(=O)Nc2ccc(C)c(-c3nc(NC4CCNCC4)nc4c3CNC(=O)N4c3c(F)cccc3F)c2)cc1F | 218 to 223.5 °C
CCOc1nc(-c2cc(NC(=O)c3ccc(C)c(F)c3)ccc2C)c2c(n1)N(c1c(F)cccc1F)C(=O)NC2 | 257.3 to 262.5 °C
CNC(=O)c1ccc(C)c(-c2nc(NCCCN(C)C)nc3c2CNC(=O)N3c2c(F)cccc2F)c1 | 164 to 167 °C (dec.)
CNC(=O)c1ccc(C)c(-c2nc(NCCN(C)C)nc3c2CNC(=O)N3c2c(F)cccc2F)c1 | 155 to 158 °C (dec.)
CNC(=O)c1ccc(C)c(-c2nc(N3CCC(N4CCCC4)CC3)nc3c2CNC(=O)N3c2c(F)cccc2F)c1 | 189 to 194 °C (dec.)
